Before we begin, note that these IC50 values for UniProt O00329 originate from several publications.

State its IC50 for this molecule: Nc1nsc2ccc(-c3ccc4nccc(-c5ccncc5)c4c3)cc12
> 10000 nM

// fetch IC50 given entry N#Cc1cc2cnc(Nc3nc(C4CCNCC4)cs3)nc2n(C2CCCC2)c1=O
5690 nM

Provide only the value of recorded IC50 for Nc1nc2cc(-c3ccn4ncc(C(=O)N5CCOCC5)c4c3)cc(Cl)c2o1
< 10000 nM

Given the molecule C=CC(=O)N1CCN(S(=O)(=O)c2ccc(Nc3ncc4c(n3)N(C)c3ccc(C)cc3C(=O)N4C)cc2)CC1 , write its reported IC50.
112 nM

Determine its reported IC50: CN1CC2CN(c3cnc4ccc(-c5ccc6oc(N)nc6c5)nc4c3)CC2C1 (centres unmarked)
< 1000 nM

***
Indicate the recorded IC50 value for this molecule: Nc1ncnc2c1c(-c1cc(O)cc(F)c1)nn2C1Cc2cc(F)ccc2C1=O (centres unmarked)
65.7 nM

Return IC50 (reported value) for this molecule: CC[C@H](Nc1ncnc(N)c1C(N)=O)c1nc2cccc(NCc3ccc(C(=O)NO)cn3)c2c(=O)n1-c1ccccc1
> 100 nM

Tell me its IC50 given C=Cc1nn(Cc2cc3cccc(C)c3c(=O)n2-c2ccccc2F)c2ncnc(N)c12 as the entry.
< 1000 nM

Provide only the value of recorded IC50 for Cc1cccc2cc([C@H](C)Nc3ncnc4[nH]nc(C#N)c34)n(-c3ccccc3)c(=O)c12
< 100 nM

Output IC50 of Nc1nc2cc(-c3ccc4ncc(N5CCNCC5)nc4c3)ccc2o1
< 10000 nM

Provide only the value of recorded IC50 for CC(=O)Nc1nc2cc(-c3nn(Cc4cc5cccc(C)c5c(=O)n4-c4ccccc4C)c4ncnc(N)c34)ccc2o1
< 100 nM

---

Literature IC50 values, system: PIK3CD (Human) (UniProt O00329).

Reference set (5 entries):
Please look at this compound and report its IC50: C[C@H](NC(=O)c1c(N)nn2cccnc12)c1cc2cccc(/C=C/c3ccccc3)c2c(=O)n1-c1ccccc1
> 10000 nM

Give reported IC50 value for C[C@H](Nc1ccnc2ccnn12)c1cc2cccc(Cl)c2c(C(=O)NC2CCOCC2)n1
< 100 nM

Look up IC50 of COc1ncc(-c2nc(N3CCOCC3)nc3c(CN4CCC5(CC4)CC5)c(C)sc23)cc1NS(C)(=O)=O and report it.
11 nM

Annotate the compound C[C@H](NC(=O)c1c(N)nn2cccnc12)c1cc2cccc(C#CCNC(=O)c3ccc(C#N)o3)c2c(=O)n1-c1ccccc1 with its measured IC50.
1000 to 10000 nM

Given the compound C[C@H](NC(=O)c1nc(-c2cccc(O)c2)cnc1N)c1cc2cccc(Cl)c2c(=O)n1-c1ccccc1 , write its reported IC50.
> 10000 nM

Next:
Return IC50 for the following compound: Cc1cccc2cc(Cn3nc(I)c4c(N)ncnc43)n(C)c(=O)c12
< 1000 nM

Complete the entry with IC50 for N#Cc1cc2cnc(Nc3cccc(C(N)=O)c3)nc2n(C2CCCC2)c1=O
444 nM

Query IC50 for Cc1cccc2cc([C@H](C)Nc3cc(N)nc(Cl)n3)n(C3CC3)c(=O)c12
> 10000 nM

Quickly give me recorded IC50 for CS(=O)(=O)N1CCC(Nc2cnc3ccc(-c4ccc5oc(N)nc5c4)cc3n2)CC1
< 100 nM

Give the value of IC50 reported for the following: CN1CCN(C(=O)c2cnc3ccc(-c4ccc5sc(N)nc5c4)cn23)CC1
> 10000 nM

Indicate its recorded IC50; the compound in question is FC(F)c1nc2ccccc2n1-c1cc(NC[C@H]2CC[C@H](N3CC[C@H](F)C3)CC2)nc(N2CCOCC2)n1
16 nM

Supply reported IC50 belonging to this compound: C=CC(=O)NCC#Cc1cccc2cc([C@H](C)NC(=O)c3c(N)nn4cccnc34)n(-c3ccccc3)c(=O)c12
100 to 1000 nM

---

Here is a set of molecules with reported pIC50 for PIK3CD (Human), compiled from the literature.
pIC50: −log10 of the molar value.

See these solved cases before continuing.
Specify reported pIC50 for the molecule shown: C[C@H](NC(=O)c1nc(-c2cccc(S(=O)(=O)N3CCOCC3)c2)cnc1N)c1cc2cccc(Cl)c2c(=O)n1-c1ccccc1
< 5.00

Give the value of pIC50 reported for the following: C[C@H](CO)C(=O)N1CCC(c2nc(-c3cnc(N)c(-c4nnc(C(C)(C)C)o4)n3)n(C)n2)CC1
> 7.92

New cases:
Indicate the recorded pIC50 value for this molecule: COCCN(C)C(=O)c1nc([C@H](C)Nc2ncnc3scnc23)cc2cccc(Cl)c12
> 7.00

Give reported pIC50 value for C[C@H](NC(=O)c1nc(-c2cn[nH]c2)cnc1N)c1cc2cccc(Cl)c2c(=O)n1-c1ccccc1
5.00 to 6.00

Please indicate pIC50 recorded for Cc1cccc2cc(Cn3nc(-c4ccc5sc(N)nc5c4)c4c(N)ncnc43)n(-c3ccccc3)c(=O)c12
> 7.00

Tell me pIC50 reported for C[C@H](NC(=O)c1cnc2cccnn12)c1cc2cccc(Cl)c2c(=O)n1-c1ccc(F)cc1
5.00 to 6.00

Read off the recorded pIC50 for Cc1cccc2cc(C(C)Nc3ncnc4[nH]cnc34)n(C3CCN(C)CC3)c(=O)c12 (centres unmarked)
> 6.00

Read the entry C[C@@H]1CN(c2cnc3ccc(-c4ccc5oc(N)nc5c4)cc3n2)CCN1 and write its reported pIC50.
> 5.00

---

Record set: IC50 | PIK3CD (Human) (UniProt O00329) | literature, multiple sources.

These recorded examples may help you get a feel for the data.
Report IC50 from PIK3CD (Human) (UniProt O00329) testing of CN1CCC(CNc2cc(-n3c(C(F)F)nc4ccccc43)nc(N3CCOCC3)n2)CC1
60 nM

State recorded IC50 with PIK3CD (Human) (UniProt O00329), entry Nc1nc2cc(-c3ccc4ncc(N5CC(N6CC7CCC(C6)O7)C5)nc4n3)ccc2o1 , no comment.
> 10000 nM

Please tell me the measured IC50 for COc1cc(-c2cccc3cc([C@H](C)NC(=O)c4c(N)ncc5cccnc45)n(-c4ccccc4)c(=O)c23)ccn1 ; system: PIK3CD (Human) (UniProt O00329).
100 to 1000 nM

Could you now look at the following compound, please?
Quote IC50 with test system PIK3CD (Human) (UniProt O00329) for C[C@H](Nc1ncnc2cccnc12)c1cc2cccc(-c3cnn(C)c3)c2c(N2CCN(C)CC2)n1
< 1000 nM

---

pIC50: −log10 of the molar value.
// compounds with pIC50 on PIK3CD (Human), multi-source literature

Below are worked cases with known answers.
Provide measured pIC50 value, entry: Cc1cccc2cc([C@H](C)Nc3ncnc4cccnc34)nc(OCCN3CCCC3)c12
> 7.00

For Cc1csc2nc(Cn3nc(C#C[C@@H](C)O)c4c(N)ncnc43)n(-c3ccccc3F)c(=O)c12 , write its pIC50.
> 7.00

Tell me measured pIC50 for C[C@H](Nc1ncnc2[nH]cnc12)c1cc2cccc(Cl)c2c(CCN2CCOCC2)n1 please.
> 7.00

Specify measured pIC50 for FC[C@@H]1CCN1[C@H]1CC[C@H](CNc2cc(-n3c(C(F)F)nc4ccccc43)nc(N3CCOCC3)n2)CC1 .
8.12

Give the reported value of pIC50 for this record: CC(C)(C#N)c1ccc(-c2n[nH]c3cnc4ccc(-c5cccnc5)cc4c23)cc1
7.46 to 8.00

---
Identify the reported pIC50 for the following entry. C[C@H](Nc1ncnc2[nH]cnc12)c1cc2cccc(Cl)c2c(CC(=O)N2CCCC2)n1
> 7.00

Answer with reported pIC50 of Cc1cccc2cc(Cn3nc(I)c4c(N)ncnc43)n(-c3ccccc3OCCN3CCOCC3)c(=O)c12
> 7.00

# return recorded pIC50 for entry C[C@H](NC(=O)c1c(N)nn2cccnc12)c1cc2cccc(-c3cncs3)c2c(=O)n1-c1ccccc1
5.00 to 6.00

Provide pIC50 value for the following compound: Cc1cccc2cc([C@H](C)Nc3nc(N)ncc3Cl)n(-c3ccccc3)c(=O)c12
> 7.00

Using the record for CC(C)(C)N1CCN(c2cnc3ccc(-c4ccc5oc(N)nc5c4)cc3n2)CC1 , state its measured pIC50.
> 6.00

Look up and state reported pIC50 for Cc1cccc2cc([C@H](C)Nc3ncnc4[nH]cnc34)n(C3CCC3)c(=O)c12
> 7.00

Return pIC50 (reported value) for this compound: Cc1cccc2cc(Cn3nc(C#C[C@@H](C)O)c4c(N)ncnc43)n(-c3ccccc3Cl)c(=O)c12
> 7.00

Hello, please tell me recorded pIC50 for this one: Cc1ccccc1-n1c(Cn2nc(-c3ccn[nH]3)c3c(N)ncnc32)cc2cccc(C)c2c1=O
> 6.00

Please give the documented pIC50 of CC1CN(c2cnc3ccc(-c4ccc5oc(N)nc5c4)cc3n2)CCN1 (stereo not shown)
> 5.00

Input Cc1cccc2cc(Cn3nc(-c4cn[nH]c4)c4c(N)ncnc43)n(-c3ccccc3F)c(=O)c12 , output reported pIC50.
> 7.00

Please report the measured pIC50 for CNC(=O)Nc1ccc(-c2nc(N3CCOC[C@@H]3C)nc3c2cnn3C2CCOCC2)cc1
< 7.00

Fill in reported pIC50 for this entry: Cn1ncc2c(-c3cccc(O)c3)nc(N3CCOCC3)nc21
5.00 to 7.00

Supply reported pIC50 belonging to this compound: Cc1nc([C@H](C)Nc2ncnc3[nH]cnc23)cc2cccc(-c3cnn(C)c3)c12
> 7.00

Determine from records and report pIC50 for Nc1nc2cc(-c3c[nH]c4nccc(-c5ccncc5)c34)ccc2o1
< 5.00
